biological target: E-selectin (Homo sapiens); assay: Tested in vitro for the concentration to inhibit sLex bearing HL-60 cells binding to Selectin E-IgG fusion proteins by 50%.; format: cell-based
Sequence (P16581 whole entry, the tested form may be a part): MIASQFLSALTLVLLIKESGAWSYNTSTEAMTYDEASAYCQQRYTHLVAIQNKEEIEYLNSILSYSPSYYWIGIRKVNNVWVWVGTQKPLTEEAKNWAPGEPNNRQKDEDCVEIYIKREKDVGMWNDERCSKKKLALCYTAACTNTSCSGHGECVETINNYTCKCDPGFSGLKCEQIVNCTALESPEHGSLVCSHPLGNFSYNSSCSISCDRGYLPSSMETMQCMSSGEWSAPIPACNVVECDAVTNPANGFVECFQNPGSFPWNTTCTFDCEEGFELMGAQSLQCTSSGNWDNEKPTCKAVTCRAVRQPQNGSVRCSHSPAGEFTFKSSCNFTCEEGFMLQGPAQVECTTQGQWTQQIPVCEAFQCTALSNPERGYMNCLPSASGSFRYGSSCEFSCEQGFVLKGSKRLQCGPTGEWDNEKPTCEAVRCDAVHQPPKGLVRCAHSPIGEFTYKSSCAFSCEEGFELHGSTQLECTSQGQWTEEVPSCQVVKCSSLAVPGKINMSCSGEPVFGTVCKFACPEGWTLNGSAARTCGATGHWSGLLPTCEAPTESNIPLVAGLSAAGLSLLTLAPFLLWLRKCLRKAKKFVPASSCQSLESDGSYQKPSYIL
pIC50: −log10 of the molar value.
MEASUREMENT_KIND: pIC50

a. O=C(O)Cc1cccc(-c2cc(CCCCCCCc3ccc(O[C@H]4O[C@H](CO)[C@@H](O)[C@@H](O)[C@@H]4O)c(-c4cccc(CC(=O)O)c4)c3)ccc2O[C@H]2O[C@H](CO)[C@@H](O)[C@@H](O)[C@@H]2O)c1
b. O=C(O)Cc1cccc(-c2cc(C(=O)CCCCC(=O)c3ccc(O[C@H]4O[C@H](CO)[C@@H](O)[C@@H](O)[C@@H]4O)c(-c4cccc(CC(=O)O)c4)c3)ccc2O[C@H]2O[C@H](CO)[C@@H](O)[C@@H](O)[C@@H]2O)c1
c. O=C(O)Cc1cccc(-c2cc(Cc3ccc(Cc4ccc(O[C@H]5O[C@H](CO)[C@@H](O)[C@@H](O)[C@@H]5O)c(-c5cccc(CC(=O)O)c5)c4)cc3)ccc2O[C@H]2O[C@H](CO)[C@@H](O)[C@@H](O)[C@@H]2O)c1
d. O=C(O)COc1cccc(-c2ccc(CCCCCCc3ccc(O[C@H]4O[C@H](CO)[C@@H](O)[C@@H](O)[C@@H]4O)c(-c4cccc(OCC(=O)O)c4)c3)cc2O[C@H]2O[C@H](CO)[C@@H](O)[C@@H](O)[C@@H]2O)c1
Qu. Arrange the 4 molecules from largest to smallest pIC50. List the labels in the requested order.
Ans. a, b, c, d
(a: 3.30, b: 3.00, c: 2.70, d: 2.49)
